test: Pharmacokinetics following single oral administration to mice; type: in vivo; conditions: mouse, CD-1 (ICR) mice, gavage 10 mg/kg, 0.5% methylcellulose/water suspension, plasma
Documented half-life across a set of compounds
MEASUREMENT TYPE: half-life (h)

INSERT INTO measurements (compound, obs_value) VALUES
  ('Cc1nc(-c2ccn[nH]2)n2nc(N3CCOC[C@H]3C)cc(-c3ccccc3F)c12 [Example 14]', 3.75),
  ('C[C@@H]1COCCN1c1cc(-c2ccnn2C)c2c(Cl)nc(-c3ccn[nH]3)n2n1 [Example 21]', 2.65),
  ('C=Cc1nc(-c2ccn[nH]2)n2nc(N3CCOC[C@H]3C)cc(-c3ccnn3C)c12 [Example 23]', 1.66),
  ('CCc1nc(-c2ccn[nH]2)n2nc(N3CCOC[C@H]3C)cc(-c3ccnn3C)c12 [Example 24]', 5.4),
  ('C=C(C)c1nc(-c2ccn[nH]2)n2nc(N3CCOC[C@H]3C)cc(-c3ccnn3C)c12 [Example 25]', 2.56),
  ('CC(C)c1nc(-c2ccn[nH]2)n2nc(N3CCOC[C@H]3C)cc(-c3ccnn3C)c12 [Example 26]', 5.82),
  ('Cc1nc(-c2ccn[nH]2)n2nc(N3CCOC[C@H]3C)cc(-c3ccnn3C)c12 [Example 1]', 1.64),
  ('Cc1ncccc1-c1cc(N2CCOC[C@H]2C)nn2c(-c3ccn[nH]3)nc(C)c12 [Example 4]', 3.2),
  ('C[C@@H]1COCCN1c1cc(-c2ccnn2C)c2c(Br)nc(-c3ccn[nH]3)n2n1 [Example 22]', 5.88),
  ('Cc1nc(-c2ccn[nH]2)n2nc(N3CCOC[C@H]3C)cc(-c3cccnc3C(F)(F)F)c12 [Example 5]', 3.42);

###

Documented AUC(0-t) across a set of molecules
test: Pharmacokinetics following single oral administration to mice; assay type: in vivo; settings: mouse, CD-1 (ICR) mice, gavage 10 mg/kg, 0.5% methylcellulose/water suspension, plasma
MEASUREMENT TYPE: AUC(0-t)

INSERT INTO results (cpd_smiles, obs_value) VALUES
  ('Cc1ncccc1-c1cc(N2CCOC[C@H]2C)nn2c(-c3ccn[nH]3)nc(C)c12', '43400 ng·h/mL'),
  ('CC(C)c1nc(-c2ccn[nH]2)n2nc(N3CCOC[C@H]3C)cc(-c3ccnn3C)c12', '46400 ng·h/mL'),
  ('C[C@@H]1COCCN1c1cc(-c2ccnn2C)c2c(Cl)nc(-c3ccn[nH]3)n2n1', '42800 ng·h/mL'),
  ('C=C(C)c1nc(-c2ccn[nH]2)n2nc(N3CCOC[C@H]3C)cc(-c3ccnn3C)c12', '70000 ng·h/mL'),
  ('Cc1nc(-c2ccn[nH]2)n2nc(N3CCOC[C@H]3C)cc(-c3ccccc3F)c12', '77300 ng·h/mL'),
  ('C=Cc1nc(-c2ccn[nH]2)n2nc(N3CCOC[C@H]3C)cc(-c3ccnn3C)c12', '22400 ng·h/mL'),
  ('C[C@@H]1COCCN1c1cc(-c2ccnn2C)c2c(Br)nc(-c3ccn[nH]3)n2n1', '59000 ng·h/mL'),
  ('CCc1nc(-c2ccn[nH]2)n2nc(N3CCOC[C@H]3C)cc(-c3ccnn3C)c12', '162000 ng·h/mL'),
  ('Cc1nc(-c2ccn[nH]2)n2nc(N3CCOC[C@H]3C)cc(-c3cccnc3C(F)(F)F)c12', '30800 ng·h/mL'),
  ('Cc1nc(-c2ccn[nH]2)n2nc(N3CCOC[C@H]3C)cc(-c3ccnn3C)c12', '98500 ng·h/mL');

###

assay: Pharmacokinetics following single oral administration to mice; assay type: in vivo; conditions: mouse, CD-1 (ICR) mice, gavage 10 mg/kg, 0.5% methylcellulose/water suspension, plasma
Think of 9000 ng/mL as a floor: if Cmax stands on it or above, it is class 1; beneath it, class 0.

INSERT INTO measurements (compound, class) VALUES
  ('Cc1nc(-c2ccn[nH]2)n2nc(N3CCOC[C@H]3C)cc(-c3ccnn3C)c12 [Example 1]', 'class 1'),
  ('C=Cc1nc(-c2ccn[nH]2)n2nc(N3CCOC[C@H]3C)cc(-c3ccnn3C)c12 [Example 23]', 'class 0'),
  ('CC(C)c1nc(-c2ccn[nH]2)n2nc(N3CCOC[C@H]3C)cc(-c3ccnn3C)c12 [Example 26]', 'class 0'),
  ('C=C(C)c1nc(-c2ccn[nH]2)n2nc(N3CCOC[C@H]3C)cc(-c3ccnn3C)c12 [Example 25]', 'class 1'),
  ('CCc1nc(-c2ccn[nH]2)n2nc(N3CCOC[C@H]3C)cc(-c3ccnn3C)c12 [Example 24]', 'class 1'),
  ('C[C@@H]1COCCN1c1cc(-c2ccnn2C)c2c(Cl)nc(-c3ccn[nH]3)n2n1 [Example 21]', 'class 0'),
  ('C[C@@H]1COCCN1c1cc(-c2ccnn2C)c2c(Br)nc(-c3ccn[nH]3)n2n1 [Example 22]', 'class 0'),
  ('Cc1nc(-c2ccn[nH]2)n2nc(N3CCOC[C@H]3C)cc(-c3ccccc3F)c12 [Example 14]', 'class 1');

###

Documented IC50 across a set of molecules
Biological target: ATR/ATRIP enzyme (Homo sapiens, UniProt Q13535)
Construct: purchased Eurofins 14-953
Sequence (Q13535 whole entry): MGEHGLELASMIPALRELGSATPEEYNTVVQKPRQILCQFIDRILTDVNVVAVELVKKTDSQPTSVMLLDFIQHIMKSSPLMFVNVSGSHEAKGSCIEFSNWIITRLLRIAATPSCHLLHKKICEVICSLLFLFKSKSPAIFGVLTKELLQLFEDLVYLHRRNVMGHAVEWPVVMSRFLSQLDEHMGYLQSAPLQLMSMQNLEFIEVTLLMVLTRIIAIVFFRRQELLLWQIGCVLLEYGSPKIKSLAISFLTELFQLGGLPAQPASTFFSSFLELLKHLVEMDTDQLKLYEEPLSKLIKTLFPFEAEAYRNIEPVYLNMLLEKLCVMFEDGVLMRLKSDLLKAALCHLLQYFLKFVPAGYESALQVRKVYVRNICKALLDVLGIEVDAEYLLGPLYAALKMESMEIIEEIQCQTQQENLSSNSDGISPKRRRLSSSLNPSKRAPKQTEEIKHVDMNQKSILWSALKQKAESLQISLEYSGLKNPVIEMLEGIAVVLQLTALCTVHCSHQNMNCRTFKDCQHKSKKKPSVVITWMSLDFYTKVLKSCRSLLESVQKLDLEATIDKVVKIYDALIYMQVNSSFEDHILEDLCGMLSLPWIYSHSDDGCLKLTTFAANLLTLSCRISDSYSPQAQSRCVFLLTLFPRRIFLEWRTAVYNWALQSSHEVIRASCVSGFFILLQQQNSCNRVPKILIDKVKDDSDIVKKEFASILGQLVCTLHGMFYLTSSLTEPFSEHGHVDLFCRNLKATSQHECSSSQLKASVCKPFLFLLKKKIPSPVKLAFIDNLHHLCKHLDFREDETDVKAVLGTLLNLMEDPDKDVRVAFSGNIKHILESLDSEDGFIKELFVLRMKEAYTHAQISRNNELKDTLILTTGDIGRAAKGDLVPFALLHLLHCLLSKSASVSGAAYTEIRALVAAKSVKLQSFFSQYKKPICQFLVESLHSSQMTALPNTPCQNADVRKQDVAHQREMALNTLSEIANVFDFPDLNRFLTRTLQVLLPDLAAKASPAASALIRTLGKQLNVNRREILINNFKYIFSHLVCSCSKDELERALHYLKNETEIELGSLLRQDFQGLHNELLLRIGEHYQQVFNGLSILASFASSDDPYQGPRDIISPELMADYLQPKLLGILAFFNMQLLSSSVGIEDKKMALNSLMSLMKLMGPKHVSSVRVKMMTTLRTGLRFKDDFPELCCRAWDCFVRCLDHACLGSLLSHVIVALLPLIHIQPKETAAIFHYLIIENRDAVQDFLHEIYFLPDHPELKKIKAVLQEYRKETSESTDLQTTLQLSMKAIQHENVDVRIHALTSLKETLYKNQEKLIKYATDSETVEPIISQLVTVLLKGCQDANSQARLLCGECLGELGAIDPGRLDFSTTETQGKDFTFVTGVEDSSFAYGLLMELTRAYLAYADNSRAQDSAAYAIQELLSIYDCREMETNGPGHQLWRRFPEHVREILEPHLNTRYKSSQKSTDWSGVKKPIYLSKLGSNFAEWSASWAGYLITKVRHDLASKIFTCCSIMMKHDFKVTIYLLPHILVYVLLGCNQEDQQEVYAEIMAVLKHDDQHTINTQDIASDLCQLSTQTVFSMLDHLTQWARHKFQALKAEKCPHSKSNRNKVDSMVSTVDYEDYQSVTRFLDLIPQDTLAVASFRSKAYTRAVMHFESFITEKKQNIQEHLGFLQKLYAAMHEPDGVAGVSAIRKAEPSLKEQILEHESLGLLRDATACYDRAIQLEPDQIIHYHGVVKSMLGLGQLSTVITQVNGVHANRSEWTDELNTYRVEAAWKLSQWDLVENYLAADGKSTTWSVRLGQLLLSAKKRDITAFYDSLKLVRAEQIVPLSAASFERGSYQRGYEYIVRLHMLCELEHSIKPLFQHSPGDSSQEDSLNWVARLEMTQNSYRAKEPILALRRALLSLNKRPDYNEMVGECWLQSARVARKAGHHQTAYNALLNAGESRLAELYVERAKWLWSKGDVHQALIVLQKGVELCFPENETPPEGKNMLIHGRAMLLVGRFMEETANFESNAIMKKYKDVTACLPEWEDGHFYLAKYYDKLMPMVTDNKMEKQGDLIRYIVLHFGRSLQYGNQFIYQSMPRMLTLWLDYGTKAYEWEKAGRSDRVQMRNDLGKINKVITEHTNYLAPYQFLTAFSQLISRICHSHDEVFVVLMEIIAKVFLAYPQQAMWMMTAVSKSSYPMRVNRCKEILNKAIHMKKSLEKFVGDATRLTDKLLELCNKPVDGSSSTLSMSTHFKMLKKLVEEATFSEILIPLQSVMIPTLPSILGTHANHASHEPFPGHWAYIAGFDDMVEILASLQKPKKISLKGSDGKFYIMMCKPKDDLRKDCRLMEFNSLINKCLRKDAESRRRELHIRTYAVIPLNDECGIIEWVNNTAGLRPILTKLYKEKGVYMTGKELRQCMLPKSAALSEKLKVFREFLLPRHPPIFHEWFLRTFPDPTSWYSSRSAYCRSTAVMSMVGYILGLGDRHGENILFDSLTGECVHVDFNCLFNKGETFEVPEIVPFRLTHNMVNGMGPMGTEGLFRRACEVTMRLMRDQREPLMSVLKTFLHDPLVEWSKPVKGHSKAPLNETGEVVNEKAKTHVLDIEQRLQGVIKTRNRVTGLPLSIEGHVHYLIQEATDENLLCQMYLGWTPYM
Sequence (Q8WXE1 whole entry partner): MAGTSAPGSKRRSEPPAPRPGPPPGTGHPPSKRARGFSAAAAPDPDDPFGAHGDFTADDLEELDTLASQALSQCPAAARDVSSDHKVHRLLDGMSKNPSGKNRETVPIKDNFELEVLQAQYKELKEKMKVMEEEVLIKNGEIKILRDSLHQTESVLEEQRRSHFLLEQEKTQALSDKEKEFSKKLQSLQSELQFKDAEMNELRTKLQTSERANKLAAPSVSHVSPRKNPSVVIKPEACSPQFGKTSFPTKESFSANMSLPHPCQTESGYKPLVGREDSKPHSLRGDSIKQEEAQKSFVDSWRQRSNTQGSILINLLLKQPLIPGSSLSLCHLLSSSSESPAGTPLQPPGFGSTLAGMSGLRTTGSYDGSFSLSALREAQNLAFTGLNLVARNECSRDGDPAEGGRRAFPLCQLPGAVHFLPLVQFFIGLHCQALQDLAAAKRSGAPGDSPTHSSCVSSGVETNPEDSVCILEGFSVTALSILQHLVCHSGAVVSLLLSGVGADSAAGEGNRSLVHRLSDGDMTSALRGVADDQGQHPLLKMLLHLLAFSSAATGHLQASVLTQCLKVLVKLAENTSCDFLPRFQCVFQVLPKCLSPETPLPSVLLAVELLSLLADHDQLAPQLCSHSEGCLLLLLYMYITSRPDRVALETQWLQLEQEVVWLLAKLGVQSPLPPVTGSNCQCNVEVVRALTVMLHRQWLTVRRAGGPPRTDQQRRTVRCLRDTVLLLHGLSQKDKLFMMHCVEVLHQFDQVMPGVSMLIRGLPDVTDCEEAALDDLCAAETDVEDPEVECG
Assay: ATR enzyme activity experiment (HTRF)
Type: biochemical
Settings: p53 substrate, 30 min room temperature, read-out: IC50 (nM), inhibitory effect on ATR kinase activity
Description: The mixture was centrifuged at 1000 rpm for 1 minute, and reacted at room temperature protected from light for 30 minutes. Then 5 μL of EDTA stop solution (250 mM) was added to stop the reaction.
MEASUREMENT TYPE: IC50 (nM)

INSERT INTO measurements (molecule, obs_value) VALUES
  ('Cc1nc(-c2ccn[nH]2)n2nc(N3CCOC[C@H]3C)cc(-c3cccnc3F)c12 [Example 16]', 9),
  ('CCc1nc(-c2ccn[nH]2)n2nc(N3CCOC[C@H]3C)cc(-c3ccnn3C)c12 [Example 24]', 2),
  ('CC(C)c1nc(-c2ccn[nH]2)n2nc(N3CCOC[C@H]3C)cc(-c3ccnn3C)c12 [Example 26]', 1),
  ('C[C@@H]1COCCN1c1cc(-c2ccnn2C)c2c(Cl)nc(-c3ccn[nH]3)n2n1 [Example 21]', 6),
  ('Cc1nc(-c2ccn[nH]2)n2nc(N3CCOC[C@H]3C)cc(-c3cccc(C#N)c3)c12 [Example 6]', 5),
  ('Cc1nc(-c2ccn[nH]2)n2nc(N3CCOC[C@H]3C)cc(-c3cnn(C)c3C)c12 [Example 12]', 1),
  ('Cc1nc(-c2ccn[nH]2)n2nc(N3CCOC[C@H]3C)cc(-c3cccnc3C(F)(F)F)c12 [Example 5]', 3),
  ('Cc1nc(-c2ccn[nH]2)n2nc(N3CCOC[C@H]3C)cc(-c3ccnn3C(C)C)c12 [Example 9]', 3);

###

system: human colon cancer LoVo cell; assay: MTT proliferation assay, LoVo; type: cell-based; settings: Homo sapiens, LoVo, 96 h, MTT, 4 days; read-out: IC50 (nM), proliferation of LoVo cell
MEASUREMENT TYPE: IC50 (nM)

INSERT INTO measurements (compound, tested_on, obs_value) VALUES
  ('C[C@@H]1COCCN1c1cc(-c2ccnn2C)c2c(F)nc(-c3ccn[nH]3)n2n1 [Example 20]', 'human colon cancer LoVo cell', 79.1),
  ('Cc1ccc(-c2cc(N3CCOC[C@H]3C)nn3c(-c4ccn[nH]4)nc(C)c23)cn1 [Example 17]', 'human colon cancer LoVo cell', 49.1),
  ('C[C@@H]1COCCN1c1cc(-c2ccnn2C)c2c(Br)nc(-c3ccn[nH]3)n2n1 [Example 22]', 'human colon cancer LoVo cell', 24.1),
  ('Cc1nc(-c2ccn[nH]2)n2nc(N3CCOC[C@H]3C)cc(-c3ccnn3C)c12 [Example 1]', 'human colon cancer LoVo cell', 26.7);

###

target: ATR/ATRIP enzyme (Homo sapiens, UniProt Q13535); construct: purchased Eurofins 14-953; test: ATR enzyme activity experiment (HTRF); type: biochemical; conditions: p53 substrate, 30 min room temperature, read-out: IC50 (nM), inhibitory effect on ATR kinase activity
Decide using IC50 alone. Strictly below 10 nM: label 1. Equal to or above 10 nM: label 0.

INSERT INTO results (molecule, class) VALUES
  ('Cc1ccccc1-c1cc(N2CCOC[C@H]2C)nn2c(-c3ccn[nH]3)nc(C)c12 [Example 3]', 'label 1'),
  ('Cc1nn(C)cc1-c1cc(N2CCOC[C@H]2C)nn2c(-c3ccn[nH]3)nc(C)c12 [Example 13]', 'label 0'),
  ('Cc1nc(-c2ccn[nH]2)n2nc(N3CCOC[C@H]3C)cc(-c3ccnn3C)c12 [Example 1]', 'label 1'),
  ('Cc1cc(-c2nc(C)c3c(-c4ccnn4C)cc(N4CCOC[C@H]4C)nn23)[nH]n1 [Example 8]', 'label 1'),
  ('Cc1ncccc1-c1cc(N2CCOC[C@H]2C)nn2c(-c3ccn[nH]3)nc(C)c12 [Example 4]', 'label 1'),
  ('Cc1cnn(C)c1-c1cc(N2CCOC[C@H]2C)nn2c(-c3ccn[nH]3)nc(C)c12 [Example 11]', 'label 1'),
  ('Cc1nc(-c2ccn[nH]2)n2nc(N3CCOC[C@H]3C)cc(C3CCOCC3)c12 [Example 7]', 'label 1'),
  ('Cc1ccc(-c2cc(N3CCOC[C@H]3C)nn3c(-c4ccn[nH]4)nc(C)c23)cn1 [Example 17]', 'label 0'),
  ('C=Cc1nc(-c2ccn[nH]2)n2nc(N3CCOC[C@H]3C)cc(-c3ccnn3C)c12 [Example 23]', 'label 1'),
  ('Cc1nc(-c2ccn[nH]2)n2nc(N3CCOC[C@H]3C)cc(-c3ccn(C(F)F)n3)c12 [Example 10]', 'label 0'),
  ('C=C(C)c1nc(-c2ccn[nH]2)n2nc(N3CCOC[C@H]3C)cc(-c3ccnn3C)c12 [Example 25]', 'label 1'),
  ('C[C@@H]1COCCN1c1cc(-c2ccnn2C)c2c(Br)nc(-c3ccn[nH]3)n2n1 [Example 22]', 'label 1'),
  ('Cc1cc(S(C)(=O)=O)ccc1-c1cc(N2CCOC[C@H]2C)nn2c(-c3ccn[nH]3)nc(C)c12 [Example 15]', 'label 1'),
  ('CCn1nccc1-c1cc(N2CCOC[C@H]2C)nn2c(-c3ccn[nH]3)nc(C)c12 [Example 2]', 'label 1'),
  ('C[C@@H]1COCCN1c1cc(-c2ccnn2C)c2c(F)nc(-c3ccn[nH]3)n2n1 [Example 20]', 'label 0');
